Reference source for all entries: paper PMC5902032

System: P. falciparum D10 (CQ-S) strain
Assay: Antiplasmodial activity against D10 strain
Assay type: cell-based, Plasmodium falciparum
Conditions: Plasmodium falciparum, D10, 72 h, read-out: D10 IC50
experimental endpoint: IC50 (nM)
One number for each entry, in nM.

[in] Item under review: CCN(CC)CCCC(C)Nc1ccnc2cc(Cl)ccc12 (stereo not shown) [Chloroquine, reference compound] . Reported IC50?
[out] 26

* * *

Test system: P. falciparum 3D7elo1-pfs16-CBG99 late-stage gametocytes
Test: Gametocytocidal luciferase-based assay, 3D7elo1-pfs16-CBG99
Assay type: cell-based, Plasmodium falciparum
Conditions: Plasmodium falciparum, 72 h, read-out: GCT: 3D7elo1-pfs16-CBG99 IC50
experimental endpoint: IC50 (nM)
Numbers only, in nM.

[in] Need IC50, item CC[C@H](C)[C@H](NC(=O)[C@H]([C@@H](C)CC)N(C)C(C)=O)C(=O)N[C@H](C(=O)N[C@@H](CC(C)C)C(=O)[C@@]1(C)CO1)[C@@H](C)O [Epoxomycin, reference compound]
[out] 7
